biological target: FGF14:Nav1.6 C-tail complex (Homo sapiens, UniProt Q92915+Q9UQD0); construct: polymerase chain reaction (PCR) amplification of the FGF14 open reading frame (nt 1–855); C-terminal fragment of Nav1.6 (amino acids 1763–1976) fused with CD4ΔC-tail (amino acids 1–395); expressed in transfected cells; test: Split-luciferase complementation assay (LCA) in Clone V double stable HEK293 cells; assay type: cell-based; conditions: CC_NCI screening; LCA, biological replicate Set 1; normalized to on-plate 0.3% DMSO controls
Sequence (Q92915 1-252 isoform Q92915-2): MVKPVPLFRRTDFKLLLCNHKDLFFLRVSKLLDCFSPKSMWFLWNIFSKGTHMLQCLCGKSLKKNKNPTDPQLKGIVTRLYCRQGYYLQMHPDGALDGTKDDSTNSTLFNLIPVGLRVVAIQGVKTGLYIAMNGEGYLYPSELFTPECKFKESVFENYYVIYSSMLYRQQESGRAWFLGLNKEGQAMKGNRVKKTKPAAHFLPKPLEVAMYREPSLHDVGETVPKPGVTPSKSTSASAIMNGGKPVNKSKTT
Sequence (Q9UQD0 1763-1976 limits assumed): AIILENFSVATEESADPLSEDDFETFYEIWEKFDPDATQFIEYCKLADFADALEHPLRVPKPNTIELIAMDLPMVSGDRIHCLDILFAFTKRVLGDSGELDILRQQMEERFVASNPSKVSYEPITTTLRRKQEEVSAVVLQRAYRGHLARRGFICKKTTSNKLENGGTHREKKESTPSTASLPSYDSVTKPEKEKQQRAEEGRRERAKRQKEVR
Structures can show the parent of a compound that is named as a salt.
Reported Endpoint: Split Luciferase Assay Z-score Set 1

Prompt line: I'd like to know its Split Luciferase Assay Z-score Set 1. The compound in question is Cc1cc2c(F)c(Oc3ncnn4cc(OC[C@@H](C)O)c(C)c34)ccc2[nH]1 [Brivanib]
Response line: -5.33

Prompt line: Entry COc1cccc2c1C(=O)c1c(O)c3c(c(O)c1C2=O)C[C@@](O)(C(=O)CO)C[C@@H]3O[C@H]1C[C@H](N)[C@@H](O)[C@H](C)O1 [Epirubicin hydrochloride] has what Split Luciferase Assay Z-score Set 1?
Response line: -4.45

Prompt line: Give the measured Split Luciferase Assay Z-score Set 1 of CCN(CC)CCNC(=O)c1c(C)[nH]c(/C=C2\C(=O)Nc3ccc(F)cc32)c1C [SUNITINIB] .
Response line: -1.55

Prompt line: Record request: Split Luciferase Assay Z-score Set 1 value, item CN(C)CC[C@H](CSc1ccccc1)Nc1ccc(S(=O)(=O)NC(=O)c2ccc(N3CCN(Cc4ccccc4-c4ccc(Cl)cc4)CC3)cc2)cc1[N+](=O)[O-] [ABT-737]
Response line: 2.66

Prompt line: Please give the measured Split Luciferase Assay Z-score Set 1 for this compound: CNC(=O)c1cc(Oc2ccc(NC(=O)Nc3ccc(Cl)c(C(F)(F)F)c3)cc2)ccn1 [Sorafenib, reference compound]
Response line: -7.62

Prompt line: # get_value(readout='Split Luciferase Assay Z-score Set 1', item= O=C1c2c(O)ccc(O)c2C(=O)c2c(NCCNCCO)ccc(NCCNCCO)c21 [Mitoxantrone] )
Response line: -7.62

Prompt line: For the compound shown here, Nc1nc2[nH]cc(CCc3ccc(C(=O)N[C@@H](CCC(=O)O)C(=O)O)cc3)c2c(=O)[nH]1 [Pemetrexed] , give the reported Split Luciferase Assay Z-score Set 1.
Response line: 0.99

Prompt line: Reported Split Luciferase Assay Z-score Set 1 for COc1ccc(Cl)cc1[C@]1(F)C(=O)Nc2cc(C(F)(F)F)ccc21 [BMS 204352] : what is it?
Response line: -7.26

Prompt line: What value of measured Split Luciferase Assay Z-score Set 1 is listed for CN(NC(=O)CC(=O)NN(C)C(=S)c1ccccc1)C(=S)c1ccccc1 [ELESCLOMOL] ?
Response line: -5.60

Prompt line: Would you mind telling me what Split Luciferase Assay Z-score Set 1 value was observed for COC1=C2C[C@@H](C)C[C@H](OC)[C@H](O)[C@@H](C)/C=C(\C)[C@H](OC(N)=O)[C@@H](OC)/C=C\C=C(/C)C(=O)NC(=CC1=O)C2=O [GELDENAMYCIN] ?
Response line: -2.34

Prompt line: Need Split Luciferase Assay Z-score Set 1, item Nc1nc(Cl)nc2c1ncn2[C@@H]1O[C@H](CO)[C@@H](O)[C@@H]1F [Clofarabine]
Response line: 3.72

Prompt line: Return reported Split Luciferase Assay Z-score Set 1; argument: O=C(CCBr)N1CCN(C(=O)CCBr)CC1 [Pipobroman]
Response line: 2.05

Prompt line: Split Luciferase Assay Z-score Set 1 lookup needed for CC1(C)CCC(c2ccc(Cl)cc2)=C(CN2CCN(c3ccc(C(=O)NS(=O)(=O)c4ccc(N[C@H](CCN5CCOCC5)CSc5ccccc5)c(S(=O)(=O)C(F)(F)F)c4)cc3)CC2)C1 [ABT-263] , thanks.
Response line: -0.50

Prompt line: Name the recorded Split Luciferase Assay Z-score Set 1 for Cc1cc(N2CCOCC2)cc2[nH]c(-c3c(NC[C@@H](O)c4cccc(Cl)c4)cc[nH]c3=O)nc12 [BMS-536924] .
Response line: -3.49

Prompt line: Fill blank: measured Split Luciferase Assay Z-score Set 1 of the compound Cn1nnc2c(C(N)=O)ncn2c1=O [Temozolomide] is ____.
Response line: 0.55

Prompt line: Please give the measured Split Luciferase Assay Z-score Set 1 for this compound: CO[C@H]1C[C@@H]2CC[C@@H](C)[C@@](O)(O2)C(=O)C(=O)N2CCCC[C@H]2C(=O)O[C@H]([C@H](C)C[C@@H]2CC[C@@H](OC(=O)C(C)(CO)CO)[C@H](OC)C2)CC(=O)[C@H](C)/C=C(\C)[C@@H](O)[C@@H](OC)C(=O)[C@H](C)C[C@H](C)/C=C/C=C/C=C/1C [Temsirolimus]
Response line: -4.01

Prompt line: I would be grateful if you could share the reported Split Luciferase Assay Z-score Set 1 for NC1(c2ccc(-c3nc4ccn5c(=O)[nH]nc5c4cc3-c3ccccc3)cc2)CCC1 [MK-2206] .
Response line: -4.19

Prompt line: Fill in the blank: the reported Split Luciferase Assay Z-score Set 1 of COc1cc2nccc(Oc3ccc(NC(=O)C4(C(=O)Nc5ccc(F)cc5)CC4)cc3)c2cc1OC [Cabozantinib] is ____.
Response line: -5.86

Prompt line: Requested field: Split Luciferase Assay Z-score Set 1. Item: Cn1cnc2c(F)c(Nc3ccc(Br)cc3Cl)c(C(=O)NOCCO)cc21 [AZD 6244]
Response line: 0.03

Prompt line: Give its Split Luciferase Assay Z-score Set 1 value. Item: C#Cc1cccc(Nc2ncnc3cc(OCCOC)c(OCCOC)cc23)c1 [Erlotinib hydrochloride]
Response line: 1.52

Prompt line: Need Split Luciferase Assay Z-score Set 1, item N#C/C(=C/c1ccc(O)c(O)c1)C(=O)NCc1ccccc1 [AG 490]
Response line: 1.52

Prompt line: Entry CN1CCN(c2ccc3nc(-c4c(N)c5c(F)cccc5[nH]c4=O)[nH]c3c2)CC1 [CHIR 258] : reported Split Luciferase Assay Z-score Set 1 = ?
Response line: -2.70

Prompt line: Split Luciferase Assay Z-score Set 1 for COc1cc2/c(=N/c3ccc(Br)cc3F)nc[nH]c2cc1OCC1CCN(C)CC1 [VANDETANIB] ?
Response line: -1.20

Prompt line: State the recorded Split Luciferase Assay Z-score Set 1 for this entry: Cc1ccc(F)c(NC(=O)Nc2ccc(-c3cccc4[nH]nc(N)c34)cc2)c1 [ABT-869]
Response line: -6.91

Prompt line: Item under review: CCCS(=O)(=O)Nc1ccc(F)c(C(=O)c2c[nH]c3ncc(-c4ccc(Cl)cc4)cc23)c1F [PLX4032] . Reported Split Luciferase Assay Z-score Set 1?
Response line: -3.93

Prompt line: Entry NC(=O)c1ccc(-c2nc(-c3ccc4c(c3)OCO4)c(-c3ccccn3)[nH]2)cc1 [SB 431542] has what Split Luciferase Assay Z-score Set 1?
Response line: 0.99

Prompt line: Look at this compound and give its reported Split Luciferase Assay Z-score Set 1. Oc1ccc(-c2nc(-c3ccncc3)c(-c3ccc(F)cc3)[nH]2)cc1 [SB 202190]
Response line: 0.12

Prompt line: Entry under review: CCCCCCCCCCCCCCCCCCOP(=O)([O-])OC1CC[N+](C)(C)CC1 [PERIFOSINE] . Reported Split Luciferase Assay Z-score Set 1?
Response line: -1.11

Prompt line: Which Split Luciferase Assay Z-score Set 1 value is on record for C[C@@H](N)[C@H]1CC[C@H](C(=O)Nc2ccncc2)CC1 [Compound Y-27632] ?
Response line: -1.91

Prompt line: Dear colleague, I am looking for the recorded Split Luciferase Assay Z-score Set 1 of the following compound: CC(C)C[C@H](NC(=O)[C@H](Cc1ccccc1)NC(=O)c1cnccn1)B(O)O [BORTEZOMIB]
Response line: -3.57

These entries and their values trace back to paper PMC6858373.
